Tested on: Clostridium sporogenes DSM 1664
measurementNotes: growth (OD595) fold change vs plate DMSO controls (fold change (ratio)); higher = more growth
conditionContext: incubation time: 27 h, anaerobic, 37 °C
measuredProperty: growth

Lookup result for Cc1cc(C(=O)NNCc2ccccc2)no1 [Isocarboxazid] (20 µM) ; measured growth: 1.17

The molecule identified as C[C@@H](O)[C@H]1C(=O)N2C(C(=O)O)=C(SCCNC=N)C[C@H]12 [Imipenem] (20 µM) registered its growth at 0.318

Lab note: CCOC1O[C@H]([C@@H](COCc2ccccc2)OCc2ccccc2)[C@H](OCc2ccccc2)[C@H]1O (some centres undefined) [Tribenoside] (20 µM) gave growth of 0.917

Entry under test: CCOc1ccc(NC(=O)CC(C)O)cc1 (centres undefined) [Bucetin] (20 µM) . Its growth was 0.973

Every entry's value here was drawn from the supplement of paper PMC12494721.
